assay: Pharmacokinetics in CML patients by dose cohort; conditions: human, plasma, po, 66 mg
Property Label: Cmax (ng/mL)
Number only, in ng/mL; omit the unit.

What the record says about Cc1ccc(C(=O)NNC(=O)c2c(C)cccc2Cl)cc1C#Cc1cnc2ccccc2c1 [compound of Formula I] : Cmax is 830

* * *

assay: Single ascending dose (SAD) study in healthy male volunteers: pharmacokinetics; assay type: in vivo, human; details: male, human, plasma, oral; 12 mg (N = 6), mean
Property Label: AUC(0-inf) (ng·h/mL)
Number only, in ng·h/mL; omit the unit.

What the record says about Cc1ccc(C(=O)NNC(=O)c2c(C)cccc2Cl)cc1C#Cc1cnc2ccccc2c1 [compound of Formula I] : AUC(0-inf) is 2770

Entry source: patent US20260069584A1
